# Tested on: rhinovirus B14
# testDetails: Antiviral activity against human rhinovirus 14
# Assay type: functional, organism-based
# conditions: Rhinovirus B
parameter: EC50 (µM)

CC(C)C[C@H](NC(=O)OCc1ccccc1)C(=O)N[C@@H](Cc1ccccc1)C(=O)N[C@@H](C[C@H]1CCNC1=O)C(=O)c1nccs1 = 7.9

1: CC(C)C[C@H](NC(=O)OCc1ccccc1)C(=O)N[C@@H](Cc1ccccc1)C(=O)N[C@@H](C[C@H]1CCNC1=O)C(=O)c1nc2ccccc2s1
2: Cc1cc(C(=O)N[C@H](C(=O)N[C@@H](Cc2ccc(F)cc2)C(=O)N[C@@H](C[C@@H]2CCNC2=O)C(=O)c2nc3ccccc3s2)C(C)C)no1
Between 1 and 2 , whose recorded EC50 is greater? Please identify the chosen entry by its label. 1
(1: 3.2 µM, 2: 0.34 µM)

---

# systemName: Cathepsin B (Homo sapiens, UniProt P07858)
pKi: −log10 of the molar value.
parameter: pKi

As a guide, the following entries are already answered.
CC(C)C[C@H](NC(=O)C1CCNCC1)C(=O)N[C@@H](CCc1ccccc1)C(=O)c1nc2cc(S(N)(=O)=O)ccc2o1 = 7.05
CC(C)C[C@H](NC(=O)C1CCNCC1)C(=O)N[C@@H](CCc1ccccc1)C(=O)c1nc2cc(C(C)(C)C)ccc2o1 = 5.15
CC(C)C[C@H](NC(=O)C1CCNCC1)C(=O)N[C@@H](CCc1ccccc1)C(=O)c1nc2ccccc2o1 = 5.68

A: CCCC[C@H](NC(=O)C(=O)[C@H](CC(C)C)NC(=O)OCc1ccccc1)C(=O)c1nnc(-c2ccco2)o1
B: CCCC[C@H](NC(=O)CCc1ccccc1)C(=O)c1nnc(-c2ccco2)o1
C: CCCC[C@H](NC(=O)OCC(C)C)C(=O)c1nnc(-c2ccco2)o1
Exam item: list the entries in increasing order of pKi. Put the labels in the requested order and write them down. B, C, A
(B: 4.60, C: 4.80, A: 8.70)

---

# testDetails: Inhibition of human beta-tryptase
pKi: −log10 of the molar value.
parameter: pKi

A: NCCCC[C@H](NC(=O)c1cc(F)cc(F)c1)C(=O)c1noc(Cc2ccc(C(=O)NCCc3cccc(Cl)c3)cc2)n1
B: N=C(N)NCCC[C@H](NC(=O)[C@@H]1CCCN1C(=O)c1ccccc1)C(=O)c1nc2ccccc2s1
C: CN[C@H](Cc1ccccc1)C(=O)N1CCC[C@H]1C(=O)N[C@@H](CCCN=C(N)N)C(=O)c1nc2ccccc2s1
D: CS(=O)(=O)N1CCC[C@H]1C(=O)N[C@@H](CCCNC(=N)N)C(=O)c1nc2ccccc2s1
// sort entries: pKi, high to low Put the labels in the requested order and write them down. A, C, D, B
(A: 8.82, C: 8.19, D: 7.48, B: 6.60)

---

# systemName: Fatty-acid amide hydrolase 1 (Rattus norvegicus, UniProt P97612)
# Sequence (P97612 whole entry): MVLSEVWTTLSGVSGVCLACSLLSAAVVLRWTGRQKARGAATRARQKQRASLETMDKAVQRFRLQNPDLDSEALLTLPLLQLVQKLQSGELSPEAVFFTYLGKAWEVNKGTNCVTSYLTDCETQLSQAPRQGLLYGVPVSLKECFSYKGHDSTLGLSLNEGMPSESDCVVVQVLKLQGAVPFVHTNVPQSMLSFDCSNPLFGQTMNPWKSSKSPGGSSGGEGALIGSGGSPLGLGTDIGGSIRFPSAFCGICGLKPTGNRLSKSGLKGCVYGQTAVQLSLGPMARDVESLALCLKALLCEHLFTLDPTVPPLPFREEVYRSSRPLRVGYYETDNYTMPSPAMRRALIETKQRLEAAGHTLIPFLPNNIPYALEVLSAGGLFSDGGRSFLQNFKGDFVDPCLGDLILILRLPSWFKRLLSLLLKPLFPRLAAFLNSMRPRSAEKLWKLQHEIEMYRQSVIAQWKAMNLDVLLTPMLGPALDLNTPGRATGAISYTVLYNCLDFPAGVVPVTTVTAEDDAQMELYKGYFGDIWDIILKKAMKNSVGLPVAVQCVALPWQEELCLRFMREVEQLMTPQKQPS
parameter: Ki (nM)

As a guide, the following entries are already answered.
COC(=O)c1cccnc1-c1cnc(C(=O)CCCCCCc2ccccc2)o1 = 130
CCCCCCCC/C=C\CCCCCCCC(=O)c1nnn(C)n1 = 65
CCCCCCCC/C=C\CCCCCCCC(=O)c1nc2ccncc2o1 = 3.7

P: CCCCC/C=C\C/C=C\C/C=C\C/C=C\CCCC(=O)c1nc2ncccc2o1
Q: CCCCC/C=C\C/C=C\C/C=C\C/C=C\CCCC(=O)[n+]1ccccn1
Min Ki? P | Q Please identify the chosen entry by its label. P
(P: 1 nM, Q: 47 nM)

a: O=C(CCc1ccc(-c2ccccc2)cc1)c1nc(-c2ccccn2)co1
b: N#Cc1cnc(C(=O)CCc2ccc(-c3ccccc3)cc2)o1
Min Ki? a | b Please identify the chosen entry by its label. b
